TGI listing for selected compounds.
Test system: KM12 colon
Assay: NCI tumour cell line growth inhibition, 48 h

{"compound": "CCN(CC)CCOc1ccc(/C=C2\\CC3C4CC=C5C[C@@H](N6CCCC6)CC[C@]5(C)C4CC[C@]3(C)[C@H]2O)cc1OC (stereo partly specified)", "measured on": "KM12 colon", "TGI": "11.9 µM"}
{"compound": "CCN(CC)CCS(=O)c1c2cc(OC)ccc2nc2ccc(OC)cc12 (stereo unspecified)", "measured on": "KM12 colon", "TGI": "> 57.5 µM"}
{"compound": "CCOC(=O)CC1=CSC2=NCCN12", "measured on": "KM12 colon", "TGI": "> 100 µM"}
{"compound": "C[Si](C)(C)OC1c2[nH]c3ccccc3c2CN2C(=O)CCC12 (stereo unspecified)", "measured on": "KM12 colon", "TGI": "> 100 µM"}
{"compound": "O=C1N=C(c2ccccc2)O/C1=C\\c1ccccc1", "measured on": "KM12 colon", "TGI": "> 100 µM"}
{"compound": "CC(=O)OCC1OC(O[C@@H]2c3c(O)c4c(c(O)c3C3=C(NN(c5ccc([N+](=O)[O-])cc5[N+](=O)[O-])[Se]3=O)[C@@]2(C)O)C(=O)c2ccccc2C4=O)C(OC(C)=O)C(OC(C)=O)C1OC(C)=O (stereo partly specified)", "measured on": "KM12 colon", "TGI": "1.58 µM"}
{"compound": "Cc1cc2c(s1)C(=O)c1sccc1C2=O", "measured on": "KM12 colon", "TGI": "3 µM"}
{"compound": "Nc1ccccc1C#C/C=C\\C#Cc1ccc(Cl)cc1Cl", "measured on": "KM12 colon", "TGI": "14.4 µM"}
{"compound": "CCOC(=O)CCC(NC(=O)c1ccc(Nc2nc3cc(C(F)(F)F)ccc3nc2-c2ccccc2)cc1)C(=O)OCC (stereo unspecified)", "measured on": "KM12 colon", "TGI": "> 100 µM"}
{"compound": "ON=C1CCC(c2ccccc2)CC1 (stereo unspecified)", "measured on": "KM12 colon", "TGI": "> 100 µM"}
{"compound": "CC(=O)c1ccc2c(c1)oc(=O)n2CCN1CCCCC1", "measured on": "KM12 colon", "TGI": "> 100 µM"}

###

Tested on: NCI/ADR-RES ovarian
Assay: NCI tumour cell line growth inhibition, 48 h
TGI listing for selected compounds.
property name: TGI

{"compound": "CC1(C)COC(/C=C/C2=NC(C)(C)CO2)=N1", "property name": "TGI", "reported value": "84 µM"}
{"compound": "CCOC(CN=c1nc(N(C)C)ss1)OCC", "property name": "TGI", "reported value": "> 100 µM"}
{"compound": "N#C/C=C1\\C=CC(O)C(O)C1OC1OC(CO)C(O)C(O)C1O (stereo not given)", "property name": "TGI", "reported value": "> 100 µM"}
{"compound": "O=C1C(=O)c2ccccc2C(O)=C1C(CCc1ccccc1)C1=C(O)c2ccccc2C(=O)C1=O", "property name": "TGI", "reported value": "> 100 µM"}
{"compound": "CCOC(=O)Oc1c(OC)cc(C(=O)O[C@@H]2C[C@@H]3CN4CCc5c([nH]c6cc(OC)ccc56)[C@H]4C[C@@H]3[C@H](C(=O)OC)[C@H]2OC)cc1OC", "property name": "TGI", "reported value": "23.3 µM"}
{"compound": "OC1CC(O)c2c(Cl)sc(Cl)c21 (stereo not given)", "property name": "TGI", "reported value": "> 100 µM"}
{"compound": "COc1c(O)ccc2c1CN1CCc3cc4c(cc3C1C2)OCO4 (stereo not given)", "property name": "TGI", "reported value": "90.2 µM"}
{"compound": "O=C1/C(=C\\c2ccc(-c3ccc(Cl)cc3Cl)o2)SC2N=C(COc3ccc(Cl)cc3)NN12 (stereo not given)", "property name": "TGI", "reported value": "> 100 µM"}
{"compound": "CCCCc1c2c(nc3c1CCC/C3=C\\c1ccccc1)C(=O)C(CN(C)C)CC2 (stereo not given)", "property name": "TGI", "reported value": "91.7 µM"}
{"compound": "Cc1c2c(n(CCc3ccccc3)c1C)NN=C(C#N)S2(=O)=O", "property name": "TGI", "reported value": "> 100 µM"}
{"compound": "CCCNC(=S)/N=C\\c1c(O)c2ccccc2oc1=O", "property name": "TGI", "reported value": "> 100 µM"}
{"compound": "COC(=O)C1(O)c2ccccc2N=C2C(=O)c3ccccc3N21 (stereo not given)", "property name": "TGI", "reported value": "> 100 µM"}
{"compound": "Fc1ccc(-c2ccc(-c3nnc(-c4cc(F)c(Cl)cc4Cl)o3)o2)cc1Cl", "property name": "TGI", "reported value": "> 100 µM"}
{"compound": "CCCCCCCCCCCCCCCCP(=O)(O)OP(=O)(O)OCC1OC(n2cnc3c(N)ncnc32)C(O)C1O (stereo not given)", "property name": "TGI", "reported value": "98.6 µM"}
{"compound": "C=C[C@@]1(C)CC(=O)[C@]2(O)[C@@]3(C)[C@@H](OC(C)=O)CCC(C)(C)[C@@H]3[C@H](OC(C)=O)[C@H](OC(C)=O)[C@@]2(C)O1", "property name": "TGI", "reported value": "> 100 µM"}
{"compound": "OCCCCC#Cc1ccccc1C#Cc1ccccc1C(F)(F)F", "property name": "TGI", "reported value": "16.2 µM"}
{"compound": "O=S(=O)(c1ccc(I)cc1)N(c1ccccc1)S(=O)(=O)C(F)(F)C(F)(F)C(F)(F)C(F)(F)F", "property name": "TGI", "reported value": "> 100 µM"}
{"compound": "Cc1sc2nc3n(c(=O)c2c1C)N=C(c1ccc(Cl)cc1)CS3", "property name": "TGI", "reported value": "> 100 µM"}
{"compound": "CC1(C)N=C(N)N=C(N)N1c1cc(Cl)ccc1Cl", "property name": "TGI", "reported value": "> 100 µM"}
{"compound": "COc1ccc(-c2nc(-c3cn(C)c4ncccc34)cs2)cc1", "property name": "TGI", "reported value": "> 100 µM"}
{"compound": "CC1(C)OCC(C2OC(N3O[C@H](CI)C[C@@H]3c3ccccc3)C3OC(C)(C)OC23)O1 (stereo not given in full)", "property name": "TGI", "reported value": "> 100 µM"}
{"compound": "C=C1C(=O)C23CC1C[C@H](OC(C)=O)C2C1(C)C(OC(C)=O)C[C@H](O)C(C)(C)[C@H]1C(O)[C@@H]3OC(C)=O (stereo not given in full)", "property name": "TGI", "reported value": "> 100 µM"}
{"compound": "CC1OC(O[C@H]2CC[C@]3(C)[C@H]4CC=C5[C@@H]6[C@@H](C)[C@H](C)CC[C@]6(C(=O)O)CC[C@@]5(C(=O)O)[C@]4(C)CC[C@H]3C2(C)C)C(O)C(O)C1O (stereo not given in full)", "property name": "TGI", "reported value": "> 75 µM"}
{"compound": "O=C1CCCC2=C1CC1=C(CCCC1=O)N2c1cccc2ccccc12", "property name": "TGI", "reported value": "> 100 µM"}
{"compound": "C/C=C(/C)C(=O)O[C@H]1C(C)=C[C@]23C(=O)[C@@H](C=C(COC(C)=O)[C@@H](O)[C@]12O)[C@H]1[C@@H](C[C@H]3C)[C@@]1(C)OC(=O)/C(C)=C\\C", "property name": "TGI", "reported value": "6.82 µM"}
{"compound": "O=c1c2cccnc2nc2ccc3c[nH][nH]c3c12", "property name": "TGI", "reported value": "> 10 µM"}
{"compound": "O=C(NC(=S)Nc1ccc(Cl)cc1)c1ccccc1", "property name": "TGI", "reported value": "> 100 µM"}
{"compound": "O=C(Cc1ccccc1)c1ccc2[nH]c(=O)oc2c1", "property name": "TGI", "reported value": "79 µM"}
{"compound": "CNC(=O)c1n[nH][nH]c1=O", "property name": "TGI", "reported value": "> 100 µM"}
{"compound": "COc1ccc(/C=C\\c2cc(OC)c(OC)c(OC)c2)cc1OCC(=O)Nc1nc2ccc(C(F)(F)F)cc2s1", "property name": "TGI", "reported value": "5.8 µM"}
{"compound": "CC1N(C)C(=O)OC12CCN(CCCC(=O)c1ccc(F)cc1)CC2 (stereo not given)", "property name": "TGI", "reported value": "> 100 µM"}
{"compound": "Cc1nc2cccc(NCc3ccc(C(=O)NO)cc3)c2c(=O)n1-c1ccccc1", "property name": "TGI", "reported value": "7.16 µM"}
{"compound": "CC(=O)CCC[C@@H](C)[C@@H]1O[C@H]([C@@]2(C)CCC(=O)O2)C[C@H]2C(CSc3ccccc3)C(=O)O[C@@H]12 (stereo not given in full)", "property name": "TGI", "reported value": "43.7 µM"}
{"compound": "S=C(Nc1ccc(Cl)cc1)Nc1ccc(-c2nc3ccccc3[nH]2)cc1", "property name": "TGI", "reported value": "> 57.4 µM"}
{"compound": "COc1cc(/C=C/C(=O)c2ccc(Cl)cc2)ccc1OS(=O)(=O)c1ccc(C)cc1", "property name": "TGI", "reported value": "37.7 µM"}
{"compound": "O=C1CCCc2cc3c(cc21)CCC3C(=O)O (stereo not given)", "property name": "TGI", "reported value": "> 100 µM"}
{"compound": "COc1cc2cc(C(=O)N3CC(CCl)c4ccc(NCCN)cc43)[nH]c2c(OC)c1OC (stereo not given)", "property name": "TGI", "reported value": "1.54 µM"}
{"compound": "Cc1cc(S(=O)(=O)Nc2nnc(-c3ccccc3)c(-c3ccccc3)n2)c(SCc2ccccc2)cc1Cl", "property name": "TGI", "reported value": "90.3 µM"}
{"compound": "O=C(O)C1CC(c2ccccc2)=NN1c1ccccc1 (stereo not given)", "property name": "TGI", "reported value": "> 100 µM"}
{"compound": "NC1CC(=O)c2cc(Br)sc21 (stereo not given)", "property name": "TGI", "reported value": "> 100 µM"}

Hey, just so you know, these numbers are from PubChem BioAssay (NCI).
